Subject of test: Concanavalin-A (Canavalia ensiformis)
Assay info: compounds binding concanavalin A lectin – biochemical, small-molecule microarray, Alexa647 label, 635 nm, artefact control for SMM control protein annotation, primary screen (AID 1127);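 note: z combines 667 nm emission intensity with signal-to-noise across three replicate slides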
Assay context: ConA-A647 binding fluorescence, higher = more signal
Reported metric: composite z-score
# answer = number (no unit)

Reference set, count: 2
COc1cc(NN2C(C(O)c3ccccc3)C=CC3C(=O)N(c4ccccc4)C(=O)C32)cc(OC)c1OC (stereo not drawn); 0.919
O=C(NCCN1CCOCC1)[C@@H]1c2ccccc2C(=O)N(Cc2cc(F)cc(C(F)(F)F)c2)[C@H]1c1ccc(CO)cc1; -0.287

*Q* What measured composite z-score goes with `COc1ccc(C#Cc2ccc3c(c2)[C@]2(C(=O)N3)[C@H](c3ccc(OCCO)cc3)N3[C@H](c4ccccc4)[C@H](c4ccccc4)OC(=O)[C@H]3[C@@H]2C(=O)Nc2nc3ccccc3s2)cc1` ?
*A* 1.13
